Origin of values: patent EP4435105

# tested.system: T1, human ASGR-1 (on CHO-S cells) (human, UniProt P07306)
# T1 chain: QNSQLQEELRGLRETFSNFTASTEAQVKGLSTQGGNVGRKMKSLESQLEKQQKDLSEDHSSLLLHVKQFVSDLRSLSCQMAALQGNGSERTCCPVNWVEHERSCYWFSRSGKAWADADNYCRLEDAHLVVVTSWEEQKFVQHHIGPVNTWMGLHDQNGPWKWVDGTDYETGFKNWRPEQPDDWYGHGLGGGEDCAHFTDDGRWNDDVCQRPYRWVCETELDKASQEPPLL
# test.name: competition, FACS, asialofetuin
Catalogue of binders with associated pIC50
# pIC50 is unitless: minus log10 of the molar concentration; print number only

Guide cases for pIC50, answers given:
- binder: "5E5 (antibody, V domains shown) VH: QVQLVESGGGVVQPGRSLRLSCAASGFTFSNYVMHWVRQAPGKGLEWVAVIWYDGSNKYYADSVKGRFTISRDNSKNTLYLQMNSLRAEDTAVYYCTREVYSSGWYDYGMDVWGQGTTVTVSS VL: DIQMTQSPSSLSASVGDRVTITCRASQGIRNDLGWYQQKPGKAPKRLIYAASSLQSGVPSRFSGSGSGTEFTLTISSLQPEDFATYYCLQHYSYPRTFGQGTKVEVK"
  pIC50: 7.80
- binder: "22G5 (antibody, V domains shown) VH: EVQLLESGGGLVQPGGSLRLSCAASGFTFSSYAMNWVRQAPGMGLEWVSVISRSGGYTYYADSVKGRFTISRDNSKNTLYLQMNSLRAEDTAVYYCASRLAVAGSEAFDIWGQGTLVTVSS VL: DIQMTQSPSSLSASVGDRVTITCRASQNISSYLNWYQQKQGKAPKLLIYAASSLQNGVPSRFSGRGSGTDFTLTISSLQPEDFATYYCQQSYRTPLFTFGPGTKVDFK"
  pIC50: 8.47

Given the binder 194C10 (antibody, V domains shown) VH: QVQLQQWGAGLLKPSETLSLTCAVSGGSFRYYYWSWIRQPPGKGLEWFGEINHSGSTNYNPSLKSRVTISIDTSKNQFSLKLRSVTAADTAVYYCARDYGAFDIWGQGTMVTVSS VL: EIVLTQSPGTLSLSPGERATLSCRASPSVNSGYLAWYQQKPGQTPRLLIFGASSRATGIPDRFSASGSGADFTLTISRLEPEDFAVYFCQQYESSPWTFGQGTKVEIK , what is its reported pIC50?
7.52
